Origin of measurements: paper PMC12207590

- test target: MATE1 (Homo sapiens, UniProt Q96FL8)
- protocol: Uptake ratio in MATE1-overexpressing HEK293 cells vs empty vector (2.5 μM, 1 min, HPLC-MS/MS)
- Assay type: cell-based
- reported conditions: uptake ratio MATE1-overexpressing vs empty-vector HEK293 cells, 2.5 μM, 1 min; mean

| molecule | MATE1 |
| --- | --- |
| C[N+](C)(C)C[C@@H](CC(=O)[O-])OC(=O)CCC(=O)O | 0.54 |
| OC(c1ccccc1)(c1ccccc1)C12CC[N+](CCOCc3ccccc3)(CC1)CC2 | 4.54 |
| C=CCN1CCCC1CNC(=O)c1cc(S(N)(=O)=O)cc(OC)c1OC (stereo not drawn) [Veralipride] | 6.39 |
| CC(C)NCC(O)c1ccc(NS(C)(=O)=O)cc1 (stereo not drawn) | 19.7 |
| CCc1nc(N)nc(N)c1-c1ccc(Cl)cc1 | 1.17 |
| C[C@H](NCCc1ccc(O)cc1)[C@H](O)c1ccc(O)cc1 (racemic) | 8.03 |
| CN[C@H]1CC[C@@H](c2ccc(Cl)c(Cl)c2)c2ccccc21 | 1.28 |
| CCCN1CCCC[C@H]1C(=O)Nc1c(C)cccc1C | 1.22 |
| CN(C)CCc1c[nH]c2ccc(C[C@H]3COC(=O)N3)cc12 [Zolmitriptan (R), Zolmitriptan] | 12.88 |

----------
Entries and their measured MATE1 ratio follow.
- test target: MATE1 (Homo sapiens)
- protocol: Uptake ratio in MATE1-overexpressing HEK293 cells vs empty vector (2.5 μM, 1 min, HPLC-MS/MS)
- Format: cell-based
- reported conditions: fold uptake over empty vector, 2.5 μM, 1 min
measurement type: MATE1 ratio

| compound | test target | reading |
| --- | --- | --- |
| NCCc1c[nH]cn1 | MATE1 (Homo sapiens) | 19.90 |
| O=C(O)c1cccnc1 | MATE1 (Homo sapiens) | 1.06 |
| CC[N+](C)(C)c1cccc(O)c1 | MATE1 (Homo sapiens) | 30.33 |
| CC(=O)OC(C)C[N+](C)(C)C (centres unmarked) | MATE1 (Homo sapiens) | 21.58 |
| CN(C)C(N)=NCCC[C@H](N)C(=O)O | MATE1 (Homo sapiens) | 0.97 |
| CN(CCN1CCC(OC(=O)Nc2ccccc2-c2ccccc2)CC1)C(=O)c1ccc(CN2CCC(C(N)=O)CC2)cc1 | MATE1 (Homo sapiens) | 1.39 |
| Clc1ccc(COC(Cn2ccnc2)c2ccc(Cl)cc2Cl)c(Cl)c1 (centres unmarked) | MATE1 (Homo sapiens) | 1.33 |
| CCCC(=O)OC(CC(=O)[O-])C[N+](C)(C)C (centres unmarked) | MATE1 (Homo sapiens) | 0.82 |
| NCCc1ccc(O)c(O)c1 | MATE1 (Homo sapiens) | 39.94 |
| COc1cc2ncnc(Nc3ccc(F)c(Cl)c3)c2cc1OCCCN1CCOCC1 | MATE1 (Homo sapiens) | 0.89 |
| Nc1ccncc1N | MATE1 (Homo sapiens) | 17.06 |

----------
- test target: MATE1 (Homo sapiens, UniProt Q96FL8)
- Sequence (Q96FL8 1-570): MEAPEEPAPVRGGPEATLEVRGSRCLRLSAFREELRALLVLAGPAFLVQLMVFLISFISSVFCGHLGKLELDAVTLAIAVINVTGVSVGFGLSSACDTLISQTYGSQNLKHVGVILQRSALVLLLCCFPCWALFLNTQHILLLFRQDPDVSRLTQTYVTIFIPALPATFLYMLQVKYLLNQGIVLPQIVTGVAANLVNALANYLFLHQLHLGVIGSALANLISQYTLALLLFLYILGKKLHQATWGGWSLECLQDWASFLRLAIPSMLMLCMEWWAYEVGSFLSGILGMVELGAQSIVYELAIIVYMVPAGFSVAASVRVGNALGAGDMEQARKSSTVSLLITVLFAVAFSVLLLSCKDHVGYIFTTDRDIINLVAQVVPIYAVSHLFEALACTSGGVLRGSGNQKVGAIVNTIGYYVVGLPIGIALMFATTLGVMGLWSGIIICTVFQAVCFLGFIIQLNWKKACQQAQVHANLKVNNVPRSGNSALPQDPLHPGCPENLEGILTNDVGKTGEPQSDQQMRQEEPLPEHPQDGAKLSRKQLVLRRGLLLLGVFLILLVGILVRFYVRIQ
- protocol: Uptake ratio in MATE1-overexpressing HEK293 cells vs empty vector (2.5 μM, 1 min, HPLC-MS/MS)
- Format: cell-based
- reported conditions: fold uptake over empty vector, 2.5 μM, 1 min

| molecule | MATE1 ratio |
| --- | --- |
| Cc1cc(O)cc(C)c1OCC(C)N (stereo not shown) [4-Hydroxymexiletine] | 1.67 |
| O=C(O[C@H]1C[N+]2(CCCOc3ccccc3)CCC1CC2)C(O)(c1cccs1)c1cccs1 [Aclidinium] | 4.73 |
| CNC[C@H](O)c1ccc(O)c(O)c1 [Epinephrine (-), Epinephrine] | 37.78 |
| Nc1ccc2[nH]ncc2c1 | 0.99 |
| OC(CNCC(O)C1CCc2cc(F)ccc2O1)C1CCc2cc(F)ccc2O1 (stereo not shown) | 1.41 |
| OCc1cc(C(O)CNCCCCCCOCCCCc2ccccc2)ccc1O (stereo not shown) | 1.78 |
| Clc1ccc2c(c1)C(N1CCNCC1)=Nc1ccccc1O2 | 1.32 |
| COC(=O)CCc1ccc(OCC(O)CNC(C)C)cc1 (stereo not shown) | 1.42 |
| CNC(=C[N+](=O)[O-])NCCSCc1ccc(CN(C)C)o1 | 18.91 |
| CN(C)CCc1c[nH]c2ccc(CS(=O)(=O)N3CCCC3)cc12 | 4.40 |
